Tested on: PC-3
ASSAY_NAME: Cytotoxicity against human PC3 cells after 72 hrs by colorimetric assay
Assay type: functional, cell-based
CONDITION_NOTES: Homo sapiens, PC-3, 72 h; read-out: IC50
MEASUREMENT_KIND: IC50

Consider the worked cases shown below.
> print(dat)
                                 mol.smiles  measurement.kind  measurement
1  OC[C@H](NC[C@H]1NC[C@H](O)[C@@H]1O)c1ccc(-c2ccc(C(F)(F)F)cc2)cc1              IC50       132 µM
2  COc1ccc([C@H](CO)NC[C@H]2NC[C@H](O)[C@@H]2O)cc1              IC50     > 200 µM
3  C=CCOc1ccc([C@H](CO)NC[C@H]2NC[C@H](O)[C@@H]2O)cc1              IC50     > 200 µM

// below: IC50 requested for another compound
**Q:** Provide IC50 value for the following compound: `OC[C@H](NC[C@H]1NC[C@H](O)[C@@H]1O)c1ccc(-c2ccccc2)cc1`
**A:** > 200 µM
